Readings of decrease of fluorescence intensity at the bottom of the microplate after papain treatment for the listed binders
Biological target: T1, Anti-HRP antibody(r)
T1 construct: Rabbit IgG, immobilised on a microplate; also called rabbit anti-HRP antibodies; anti-HRP antibody from a rabbit
Assay: labelled peptide on immobilised rabbit anti-HRP antibody, papain cleavage
Ends that are not written are not given here. FAM = carboxyfluorescein (FAM) fluorescent label
Give your result in % as a bare value.

>  <binder>
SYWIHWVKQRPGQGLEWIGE (not fully specified (N-terminus), Synthetic 20-mer homologous to the FR2 region of the heavy chain; The fluorescent label differs between experiments; also called H1 switching peptide; third peptide compound H1) [H1 peptide]

>  <unitName>
%

>  <resultNumber>
84.3

$$$$

Ask | Report measured decrease of fluorescence intensity at the bottom of the microplate after papain treatment; entry is {FAM}-VYYCFQGSHVPFTK (Synthetic 14-mer homologous to the FR3 or FR4 region of the light chain; also called L2 switching peptide; second peptide compound L2) [L2 peptide]
Reply | 72.5

Ask | Report measured decrease of fluorescence intensity at the bottom of the microplate after papain treatment; entry is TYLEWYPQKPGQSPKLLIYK (not fully specified (N-terminus), Synthetic 20-mer homologous to the FR2 region of the light chain; The label differs between experiments; also called L1 switching peptide; first peptide compound L1) [L1 peptide]
Reply | 84.8

Ask | Report measured decrease of fluorescence intensity at the bottom of the microplate after papain treatment; entry is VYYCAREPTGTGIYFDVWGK (not fully specified (N-terminus), Synthetic 20-mer homologous to the FR3 or FR4 region of the heavy chain; The label differs between experiments; also called H2 switching peptide; fourth peptide compound H2) [H2 peptide]
Reply | 58.7
